# Tested on: Rosa hybrida (pot rose cultivar) explants
# Protocol text: In vitro and post vitro shoot multiplication and rooting of rose
# Assay type: in vivo
# Test parameters: In vitro, 10 μM, 8 weeks
Readout type: Flower number per explant
Lab note: record just the number, no unit beside it.

COc1cccc(CNc2ncnc3nc[nH]c23)c1 | 0.03
COc1ccccc1CNc1ncnc2nc[nH]c12 | 0.29
c1ccc(CNc2ncnc3nc[nH]c23)cc1 [BAP, 6-benzylaminopurine, reference compound] | 0.00

Then there is this compound:
Given the compound Oc1cccc(CNc2ncnc3nc[nH]c23)c1 [meta-topolin, 6-(3-hydroxybenzylamino)purine] , what is its reported Flower number per explant? 0.16

----------
# System: breast carcinoma cell line MCF-7
# Protocol text: Calcein AM cytotoxicity, MCF7
# Assay type: cell-based, human
# Test parameters: Homo sapiens, MCF7, 72 h, read-out: IC 50, MCF7
Reported IC50 is given for each of the following compounds.

Oc1ccc(CNc2ncnc3nc[nH]c23)cc1O [6-(3,4-dihydroxybenzylamino)purine] | > 167 µM
Clc1ccc(CNc2ncnc3nc[nH]c23)cc1 [6-(4-chlorobenzylamino)purine] | > 167 µM
COc1cc(OC)c(CNc2ncnc3nc[nH]c23)c(OC)c1 [6-(2,4,6-trimethoxybenzylamino)purine] | > 167 µM

Then there is this compound:
Given the compound COc1cc(CNc2ncnc3nc[nH]c23)ccc1O [6-(4-hydroxy-3-methoxybenzylamino)purine] , what is its reported IC50? > 167 µM

----------
Reported Activity (%) [10^−4 mol · l^−1 BAP = 100%] is given for each of the following compounds.
# Test system: tobacco callus Nicotiana tabacum L. cv. Wisconsin 38
# Protocol text: Cytokinin-dependent tobacco callus growth
# Assay type: cell-based
# Test parameters: fresh callus weight at the concentration with highest activity

Fc1ccc(CNc2ncnc3nc[nH]c23)c(F)c1 | 95 (±1) %
Clc1ccc(CNc2ncnc3nc[nH]c23)cc1 | 64 (±8) %
Cc1ccc(CNc2ncnc3nc[nH]c23)cc1 | 52 (±8) %

Given the compound Fc1ccccc1CNc1ncnc2nc[nH]c12 , what is its reported Activity (%) [10^−4 mol · l^−1 BAP = 100%]? 111 (±21) %

----------
Reported IC50 is given for each of the following compounds.
# Tested on: breast carcinoma cell line MCF-7
# Protocol text: Calcein AM cytotoxicity, MCF7
# Format: cell-based, human
# Test parameters: Homo sapiens, MCF7, 72 h, read-out: IC 50, MCF7

Solved entries (count: 4):
Fc1ccc(CNc2ncnc3nc[nH]c23)c(F)c1F | > 167 µM
Cc1ccc(CNc2ncnc3nc[nH]c23)cc1 | 82.8 µM
COc1cc(CNc2ncnc3nc[nH]c23)cc(OC)c1 | > 167 µM
Nc1ncnc2nc[nH]c12 | > 167 µM

Then there is this compound:
Given the compound Cc1cccc(CNc2ncnc3nc[nH]c23)c1 , what is its reported IC50? 102 µM
